The values you see were collected from the supplement of paper PMC10567573.

B1: IMPA1 (parent)
chain: FIGEESVAAGEKSILTDNPTWIID

Variants of: B1
Experiment: protein stability index of a GFP-peptide fusion (GPS, HEK-293T) (PSI 1-6); higher = more stable;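 also: lentivirally expressed fusions sorted by FACS into six bins by GFP to DsRed ratio, PSI derived from sequencing read proportions per bin multiplied by bin number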
Conditions: c terminus: a fixed tail appended
Kindly return yes (1) if reported protein stability index is no lower than 2; return no (0) if it is lower.

[[record]]
variantdescriptor = "S6C"
classification = "no (0)"

[[record]]
variantdescriptor = "I14W"
classification = "yes (1)"

[[record]]
variantdescriptor = "V7W"
classification = "no (0)"

[[record]]
variantdescriptor = "I22C"
classification = "yes (1)"

[[record]]
variantdescriptor = "G3E"
classification = "yes (1)"

[[record]]
variantdescriptor = "D24W"
classification = "yes (1)"

[[record]]
variantdescriptor = "V7K"
classification = "yes (1)"

[[record]]
variantdescriptor = "K12F"
classification = "no (0)"

[[record]]
variantdescriptor = "E5P"
classification = "yes (1)"

[[record]]
variantdescriptor = "T20S"
classification = "yes (1)"

[[record]]
variantdescriptor = "E5S"
classification = "no (0)"

[[record]]
variantdescriptor = "T20Y"
classification = "no (0)"

[[record]]
variantdescriptor = "P19K"
classification = "yes (1)"

[[record]]
variantdescriptor = "I2N"
classification = "yes (1)"

[[record]]
variantdescriptor = "T16G"
classification = "yes (1)"

[[record]]
variantdescriptor = "V7M"
classification = "no (0)"

[[record]]
variantdescriptor = "D24Q"
classification = "yes (1)"

[[record]]
variantdescriptor = "A9V"
classification = "yes (1)"

[[record]]
variantdescriptor = "S6L"
classification = "yes (1)"

[[record]]
variantdescriptor = "A9W"
classification = "no (0)"

[[record]]
variantdescriptor = "L15Q"
classification = "yes (1)"

[[record]]
variantdescriptor = "E4Q"
classification = "no (0)"

[[record]]
variantdescriptor = "I22R"
classification = "yes (1)"

[[record]]
variantdescriptor = "V7S"
classification = "yes (1)"

[[record]]
variantdescriptor = "K12C"
classification = "no (0)"

[[record]]
variantdescriptor = "E4S"
classification = "no (0)"

[[record]]
variantdescriptor = "I2F"
classification = "yes (1)"

[[record]]
variantdescriptor = "T16N"
classification = "yes (1)"

[[record]]
variantdescriptor = "T20E"
classification = "yes (1)"

